tested on: azole-resistant Candida albicans R357 strain; assay: microbe, parasite or virus in culture; format: cell-based; conditions: C. albicans R357
endpoint name: Susceptibility (CLSI)

>  <smiles repr>
C[C@@H](c1ncncc1F)[C@](O)(Cn1cncn1)c1ccc(F)cc1F

>  <assay target>
azole-resistant Candida albicans R357 strain

>  <endpoint name>
Susceptibility (CLSI)

>  <obs value>
R

$$$$
>  <smiles repr>
OC(Cn1cncn1)(Cn1cncn1)c1ccc(F)cc1F

>  <assay target>
azole-resistant Candida albicans R357 strain

>  <endpoint name>
Susceptibility (CLSI)

>  <obs value>
R

$$$$
>  <smiles repr>
CC[C@H](C)C[C@H](C)CCCCCCCCC(=O)N[C@H]1C[C@@H](O)[C@@H](NCCN)NC(=O)[C@@H]2[C@@H](O)CCN2C(=O)[C@H]([C@H](O)CCN)NC(=O)[C@H]([C@H](O)[C@@H](O)c2ccc(O)cc2)NC(=O)[C@@H]2C[C@@H](O)CN2C(=O)[C@H]([C@@H](C)O)NC1=O

>  <assay target>
azole-resistant Candida albicans R357 strain

>  <endpoint name>
Susceptibility (CLSI)

>  <obs value>
S

$$$$
>  <smiles repr>
C[C@@H]1[C@H](O)[C@@H](C)/C=C/C=C/C=C/C=C/C=C/C=C/C=C/[C@H](O[C@@H]2O[C@H](C)[C@@H](O)[C@H](N)[C@@H]2O)C[C@@H]2O[C@](O)(C[C@@H](O)C[C@@H](O)[C@H](O)CC[C@@H](O)C[C@@H](O)CC(=O)O[C@H]1C)C[C@H](O)[C@H]2C(=O)O

>  <assay target>
azole-resistant Candida albicans R357 strain

>  <endpoint name>
Susceptibility (CLSI)

>  <obs value>
S

$$$$

* * *

tested on: Candida orthopsilosis; assay: Broth microdilution of invasive fungal isolates (CLSI M27-A3/M38-A2); format: cell-based; conditions: 10 isolates
Starred links: 1 amine or outer side, 2 acyl side, 3 side chain; linkers in the order of their positions; H or OH if unused. Positions of bridges follow the written chain, without caps; N, C: chain ends. Non-standard residues stand in square brackets, D forms with d. Residues, ends and D or L forms follow the SMILES beside them. *: point of attachment. Orn(4R-OH,5R-OCH2CH2NMe3+) = C[N+](C)(C)CCO[C@@H](N[*:3])[C@H](O)C[C@H](N[*:1])C(=O)[*:2]; hTyr(3S-OH,4S-OH,3'-OSO3H) = N[C@H](C(=O)O)[C@H](O)[C@@H](O)c1ccc(O)c(OS(=O)(=O)O)c1; pTerphenylCO(4''-OnC5H11) = CCCCCOc1ccc(-c2ccc(-c3ccc(C(=O)*)cc3)cc2)cc1; Orn(4R-OH,5R-OH) = O=C([C@H](C[C@@H](O)[C@@H](O)N[*:3])N[*:1])[*:2]; hTyr(3S-OH,4S-OH) = N[C@H](C(=O)O)[C@H](O)[C@@H](O)c1ccc(O)cc1; Pro(3S-OH,4S-Me) = C[C@H]1CN[C@H](C(=O)O)[C@H]1O; X1 = CCCCCOc1ccc(-c2cc(-c3ccc(C(=O)*)cc3)no2)cc1; Gln(3R-OH) = NC(=O)C[C@@H](O)[C@H](N)C(=O)O; Hyp = O=C(O)[C@@H]1C[C@@H](O)CN1
endpoint name: Cumulative % of isolates inhibited at MIC 0.25 μg/mL

>  <molecule>
CCCCCOc1ccc(-c2ccc(-c3ccc(C(=O)N[C@H]4C[C@@H](O)[C@@H](OCC[N+](C)(C)C)NC(=O)[C@@H]5[C@@H](O)[C@@H](C)CN5C(=O)[C@H]([C@@H](C)O)NC(=O)[C@H]([C@H](O)[C@@H](O)c5ccc(O)cc5)NC(=O)[C@@H]5C[C@@H](O)CN5C(=O)[C@H]([C@@H](C)O)NC4=O)cc3)cc2)cc1 [Compound 1] ({pTerphenylCO(4''-OnC5H11)}-[Orn(4R-OH,5R-OCH2CH2NMe3+)]T[Hyp][hTyr(3S-OH,4S-OH)]T[Pro(3S-OH,4S-Me)]; lactam 1-C)

>  <obs value>
(40.0) %

$$$$
>  <molecule>
CCCCCOc1ccc(-c2cc(-c3ccc(C(=O)N[C@H]4C[C@@H](O)[C@@H](O)NC(=O)[C@@H]5[C@@H](O)[C@@H](C)CN5C(=O)[C@H]([C@H](O)CC(N)=O)NC(=O)[C@H]([C@H](O)[C@@H](O)c5ccc(O)c(OS(=O)(=O)O)c5)NC(=O)[C@@H]5C[C@@H](O)CN5C(=O)[C@H]([C@@H](C)O)NC4=O)cc3)no2)cc1 [MCF, micafungin] (X1-[Orn(4R-OH,5R-OH)]T[Hyp][hTyr(3S-OH,4S-OH,3'-OSO3H)][Gln(3R-OH)][Pro(3S-OH,4S-Me)]; lactam 1-C)

>  <obs value>
(40.0) %

$$$$

These data points were gathered from patent US20180256673A1.
